Entries and their selectivity ratio
# protocol_details: Selectivity index, IC50 for cytotoxicity against human HepG2 cells to MIC for antibacterial activity against Pseudomonas aeruginosa ATCC 27853 assessed as inhibition of bacterial growth
# Format: toxicity, cell-based
# test_conditions: read-out: Selectivity Index
Reply with the value as a number alone.

Illustrative cases are given below, each with its answer.
compound_structure_string | readout_value
CC(=O)O.CC(=O)O.CC(=O)O.CC(=O)O.CCCN(CCCOc1cc(/C=C/c2ccc(/C=C/c3cc(OCCCN(CCC)C(=N)CC)cc(OCCCN(CCC)C(=N)CC)c3)cc2)cc(OCCCN(CCC)C(=N)CC)c1)C(=N)CC | 2
CC(=O)O.CC(=O)O.CC(=O)O.CC(=O)O.CCCN(CCCOc1cc(/C=C/c2ccc(/C=C/c3cc(OCCCN(CCC)C(=N)C4CC4)cc(OCCCN(CCC)C(=N)C4CC4)c3)cc2)cc(OCCCN(CCC)C(=N)C2CC2)c1)C(=N)C1CC1 | 0.5
CC(=O)O.CC(=O)O.CC(=O)O.CC(=O)O.N=C(NCCCOc1cc(/C=C/c2ccc(/C=C/c3cc(OCCCNC(=N)C4CC4)cc(OCCCNC(=N)C4CC4)c3)cc2)cc(OCCCNC(=N)C2CC2)c1)C1CC1 | 512
CC(=O)O.CC(=O)O.CC(=O)O.CC(=O)O.CN(CCCOc1cc(/C=C/c2ccc(/C=C/c3cc(OCCCN(C)C(=N)C4CC4)cc(OCCCN(C)C(=N)C4CC4)c3)cc2)cc(OCCCN(C)C(=N)C2CC2)c1)C(=N)C1CC1 | 128
C(=C\c1cc(OCCCNC2=NCCC2)cc(OCCCNC2=NCCC2)c1)/c1ccc(/C=C/c2cc(OCCCNC3=NCCC3)cc(OCCCNC3=NCCC3)c2)cc1.CC(=O)O.CC(=O)O.CC(=O)O.CC(=O)O | 64
CC(=O)O.CC(=O)O.CC(=O)O.CC(=O)O.CCC(=N)N(CCCOc1cc(/C=C/c2ccc(/C=C/c3cc(OCCCN(C(=N)CC)C4CC4)cc(OCCCN(C(=N)CC)C4CC4)c3)cc2)cc(OCCCN(C(=N)CC)C2CC2)c1)C1CC1 | 8

# query: selectivity ratio of entry CC(=O)O.CC(=O)O.CC(=O)O.CC(=O)O.N=C(CC1CC1)NCCCOc1cc(/C=C/c2ccc(/C=C/c3cc(OCCCNC(=N)CC4CC4)cc(OCCCNC(=N)CC4CC4)c3)cc2)cc(OCCCNC(=N)CC2CC2)c1 32

# query: selectivity ratio of entry CC(=O)O.CC(=O)O.CC(=O)O.CC(=O)O.CCC(=N)NCCCOc1cc(/C=C/c2ccc(/C=C/c3cc(OCCCNC(=N)CC)cc(OCCCNC(=N)CC)c3)cc2)cc(OCCCNC(=N)CC)c1 128
